# tested_on: CDK1/Cyclin B1 (Homo sapiens, UniProt P06493)
# Sequence (P06493 whole entry): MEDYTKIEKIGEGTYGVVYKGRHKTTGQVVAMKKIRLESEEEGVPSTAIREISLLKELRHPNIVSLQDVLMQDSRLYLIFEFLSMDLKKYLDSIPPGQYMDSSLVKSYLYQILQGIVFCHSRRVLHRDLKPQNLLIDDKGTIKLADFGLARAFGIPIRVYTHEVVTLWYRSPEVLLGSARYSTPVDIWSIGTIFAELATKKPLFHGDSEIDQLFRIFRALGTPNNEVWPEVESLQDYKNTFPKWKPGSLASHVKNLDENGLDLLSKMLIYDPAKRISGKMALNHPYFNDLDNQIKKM
# Sequence (P14635 whole entry partner): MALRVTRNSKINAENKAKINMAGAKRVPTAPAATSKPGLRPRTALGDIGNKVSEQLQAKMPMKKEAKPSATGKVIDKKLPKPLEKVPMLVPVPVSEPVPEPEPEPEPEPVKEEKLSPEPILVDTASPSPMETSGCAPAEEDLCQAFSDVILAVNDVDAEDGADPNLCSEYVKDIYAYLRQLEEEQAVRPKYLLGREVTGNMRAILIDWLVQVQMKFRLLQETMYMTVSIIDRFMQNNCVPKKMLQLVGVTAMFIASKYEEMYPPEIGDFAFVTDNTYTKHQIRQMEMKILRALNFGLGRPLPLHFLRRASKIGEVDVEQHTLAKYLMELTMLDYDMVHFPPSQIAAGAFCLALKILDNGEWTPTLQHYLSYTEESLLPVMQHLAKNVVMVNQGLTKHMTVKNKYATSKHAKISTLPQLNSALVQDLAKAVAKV
# assay_explanation: CDK1/Cyclin B1 TR-FRET biochemical assay, 1 mM ATP
# settings: 0.15 μM Rb (Ser780)-biotin substrate, 90 min reaction, Table 2
# Procedure: Compounds disclosed herein were tested for inhibition of CDK2/Cyclin E1 or CDK1/Cyclin B kinase in an assay based on the time-resolved fluorescence-resonance energy transfer (TR-FRET) methodology. […] Plates were incubated at room temperature for 60 minutes, and the TR-FRET signals (ex337 nm, em665 nm/620 nm) were recorded on a PHERAstar FSX plate reader (BMG Labtech). […]
quantity_kind: IC50 (nM)
Use nM as the unit, but write only the number.

Previously resolved entries follow.
compound: CC(C)(C)c1ccnc([C@@H]2CC[C@H](c3cc(Nc4ccc5c(c4F)CNS5(=O)=O)n[nH]3)C2)n1 (relative stereo)
quantity_kind: IC50
value_reported: 142
//
compound: CN1c2ccc(Nc3cc([C@@H]4CC[C@H](c5ncc(C(C)(C)C)o5)C4)[nH]n3)cc2CS1(=O)=O
quantity_kind: IC50
value_reported: 2530
//
compound: CN1c2ccc(Nc3cc(C4CCC(c5ncc(C(C)(C)C)o5)C4)[nH]n3)cc2CS1(=O)=O (stereo not shown)
quantity_kind: IC50
value_reported: 624
//
compound: CC(C)c1ccnc(C2CCC(c3cc(Nc4ccc5c(c4F)CS(=O)(=O)C5)n[nH]3)C2)c1 (stereo not shown)
quantity_kind: IC50
value_reported: 1520

# evaluate next
Briefly, IC50 measured for CC1(c2cnc(C3CCC(c4cc(Nc5ccc6c(c5F)CNS6(=O)=O)n[nH]4)C3)o2)CC1 (stereo not shown) : 6850

====

# tested_on: CDK2/Cyclin E1 (Homo sapiens, UniProt P24941)
# assay_explanation: CDK2/Cyclin E1 TR-FRET biochemical assay, 0.060 mM ATP
# settings: 0.15 μM Rb (Ser780)-biotin substrate, 120 min reaction, Table 1
In plain terms, low IC50, meaning strictly below 10 nM, gives Criterion met, and everything else gives Criterion not met.

compound: CC1(n2cnnc2O[C@@H]2CC[C@H](c3cc(Nc4ccc5c(c4F)CNS5(=O)=O)n[nH]3)C2)CC1 (relative stereo)
category: Criterion not met

Is IC50 of CC1(C)NC(=O)N(C2CCC(c3cc(Nc4ccc5c(c4F)CNS5(=O)=O)n[nH]3)C2)C1=O (single isomer, unassigned) [Example 84b] strictly below 10 nM?
Criterion not met

Is IC50 of O=S1(=O)NCc2c1ccc(Nc1cc([C@H]3CC[C@@H](Oc4ccnn4-c4ccccc4)C3)[nH]n1)c2F (relative stereo) strictly below 10 nM?
Criterion not met

Is IC50 of C=C(C)c1csnc1O[C@@H]1CC[C@H](c2cc(Nc3ccc4c(c3F)CNS4(=O)=O)n[nH]2)C1 (relative stereo) strictly below 10 nM?
Criterion met

Is IC50 of Cn1cc(O[C@@H]2CC[C@H](c3cc(Nc4ccc5c(c4F)CNS5(=O)=O)n[nH]3)C2)cn1 (relative stereo) strictly below 10 nM?
Criterion not met

Is IC50 of O=S1(=O)NCc2c1ccc(Nc1cc([C@H]3CC[C@@H](Oc4nnccc4C4CC4)C3)[nH]n1)c2F (relative stereo) strictly below 10 nM?
Criterion met

====

# tested_on: CDK1/Cyclin B1 (Homo sapiens, UniProt P06493)
# assay_explanation: CDK1/Cyclin B1 TR-FRET biochemical assay, 1 mM ATP
# settings: 0.15 μM Rb (Ser780)-biotin substrate, 90 min reaction, Table 2
In plain terms, low IC50, meaning strictly below 1 µM, gives true, and everything else gives false.

Please review the entries below; each comes with its answer.
molecule: Cc1nc(C2CCC(c3cc(Nc4ccc5c(c4F)CS(=O)(=O)C5)n[nH]3)C2)oc1C(C)(C)C (centres unmarked)
category: true
//
molecule: CC(C)(C)c1ccc([C@H]2CC[C@H](c3cc(Nc4ccc5c(c4F)CNS5(=O)=O)n[nH]3)C2)o1 (relative stereo)
category: false
//
molecule: CC(C)(C)c1cc(O[C@@H]2CC[C@H](c3cc(Nc4ccc5c(c4F)CNS5(=O)=O)n[nH]3)C2)ncn1 (relative stereo)
category: false
//
molecule: CC(C)(C)c1cnc(C2CCC(c3cc(Nc4ccc5c(c4F)CS(=O)(=O)C5)n[nH]3)C2)o1 (centres unmarked)
category: true
//
molecule: CC(C)(C)c1cnnc(C2CCC(c3cc(Nc4cc5c(cc4F)S(=O)(=O)NC5)n[nH]3)C2)c1 (centres unmarked)
category: false

Pending molecule:
Is IC50 of CC(C)(C)c1cn([C@@H]2CC[C@H](c3cc(Nc4ccc5c(c4F)CNS5(=O)=O)n[nH]3)C2)nn1 (relative stereo) strictly below 1 µM?
false

====

# tested_on: CDK1/Cyclin B1 (Homo sapiens, UniProt P06493)
# assay_explanation: CDK1/Cyclin B1 TR-FRET biochemical assay, 1 mM ATP
# settings: 0.15 μM Rb (Ser780)-biotin substrate, 90 min reaction, Table 2
Here, each record is paired with measured IC50 data.

Previously resolved entries follow.
molecule: CC(C)(C)c1coc(C2CCC(c3cc(Nc4ccc5c(c4F)CS(=O)(=O)N5)n[nH]3)C2)n1 (centres unmarked) [Example 148]
IC50: 7.41 µM

molecule: Cc1[nH]nc(C(C)(C)C)c1O[C@@H]1CC[C@H](c2cc(Nc3ccc4c(c3F)CNS4(=O)=O)n[nH]2)C1 (relative stereo) [Example 80]
IC50: > 10 µM

molecule: CC(C)(C)c1cccc(C2=CC(c3cc(Nc4ccc5c(c4F)CS(=O)(=O)N5)n[nH]3)CC2)n1 (centres unmarked) [Example 157]
IC50: > 10 µM

Briefly, IC50 measured for CC(C)(C)c1cnc(C2CCC(c3cc(Nc4ccc(S(N)(=O)=O)cc4F)n[nH]3)C2)o1 (single isomer, unassigned) [Example 6b] : > 10 µM

Briefly, IC50 measured for CC(C)(C)c1cc(C2CCC(c3cc(Nc4ccc5c(c4F)CNS5(=O)=O)n[nH]3)C2)ncn1 (centres unmarked) [Example 130] : > 10 µM

====

# tested_on: CDK1/Cyclin B1 (Homo sapiens, UniProt P06493)
# assay_explanation: CDK1/Cyclin B1 TR-FRET biochemical assay, 0.015 mM ATP
# settings: 0.15 μM Rb (Ser780)-biotin substrate, 120 min reaction, Table 1
quantity_kind: IC50 (nM)
Use nM as the unit, but write only the number.

compound: O=c1c(C2CC2)ccnn1[C@H]1CC[C@@H](c2cc(Nc3ccc4c(c3F)CNS4(=O)=O)n[nH]2)C1 (relative stereo)
IC50, nM: 1240

# evaluate next
Briefly, IC50 measured for Cn1ccc(O[C@@H]2CC[C@H](c3cc(Nc4ccc5c(c4F)CNS5(=O)=O)n[nH]3)C2)n1 (relative stereo) : 1900

====

# tested_on: CDK1/Cyclin B1 (Homo sapiens)
# assay_explanation: CDK1/Cyclin B1 TR-FRET biochemical assay, 1 mM ATP
# settings: 0.15 μM Rb (Ser780)-biotin substrate, 90 min reaction, Table 2
Here, each record is paired with measured IC50 data.

Previously resolved entries follow.
compound: COc1cccc(C2CCC(c3cc(Nc4cc5c(cc4F)S(=O)(=O)NC5)n[nH]3)C2)n1 (stereo not shown)
IC50: > 10 µM

compound: CC(C)c1cnc(C2CCC(c3cc(Nc4ccc5c(c4)CS(=O)(=O)N5)n[nH]3)C2)o1 (single isomer, unassigned) [Example 138a]
IC50: 0.16 µM

compound: CC(C)(C)c1ccnc(C2CCC(c3cc(Nc4cc5c(cc4F)S(=O)(=O)NC5)n[nH]3)C2)c1 (stereo not shown)
IC50: > 10 µM

compound: CC(C)c1ccnc(C2CCC(c3cc(Nc4ccc5c(c4F)CNS5(=O)=O)n[nH]3)C2)c1 (stereo not shown)
IC50: > 10 µM

compound: O=S1(=O)NCc2c1ccc(Nc1cc(C3CCC(c4ncc(C5CC5)o4)C3)[nH]n1)c2F (stereo not shown)
IC50: > 10 µM

Briefly, IC50 measured for CC(C)(C)c1nnc([C@H]2CC[C@H](c3cc(Nc4ccc5c(c4F)CNS5(=O)=O)n[nH]3)C2)o1 (relative stereo) : > 10 µM

Briefly, IC50 measured for CCc1ccnc(C2CCC(c3cc(Nc4ccc5c(c4F)CNS5(=O)=O)n[nH]3)C2)n1 (stereo not shown) : 2.76 µM

====

Here, each record is paired with measured pIC50 data.
# tested_on: CDK1/Cyclin B1 (Homo sapiens, UniProt P06493)
# assay_explanation: CDK1/Cyclin B1 TR-FRET biochemical assay, 0.015 mM ATP
# settings: 0.15 μM Rb (Ser780)-biotin substrate, 120 min reaction, Table 1
When answering, recall that pIC50 equals minus log10 of the concentration in mol/L, and write that number alone.

Previously resolved entries follow.
compound: O=c1ccon1[C@H]1CC[C@@H](c2cc(Nc3ccc4c(c3F)CNS4(=O)=O)n[nH]2)C1 (relative stereo)
pIC50: 5.59
--
compound: CN1C(=O)N([C@H]2CC[C@@H](c3cc(Nc4ccc5c(c4F)CNS5(=O)=O)n[nH]3)C2)C(=O)C1(C)C (relative stereo)
pIC50: 5.87
--
compound: CCc1cnc(C2CCC(c3cc(Nc4ccc5c(c4)CS(=O)(=O)N5)n[nH]3)C2)o1 (stereo not drawn)
pIC50: 7.09
--
compound: Cc1ccncc1O[C@@H]1CC[C@H](c2cc(Nc3ccc4c(c3F)CNS4(=O)=O)n[nH]2)C1 (relative stereo)
pIC50: 6.27
--
compound: O=S1(=O)NCc2c1ccc(Nc1cc([C@H]3CC[C@@H](Oc4cccnn4)C3)[nH]n1)c2F (relative stereo)
pIC50: 6.62

# evaluate next
Briefly, pIC50 measured for CC(C)c1cncc(O[C@@H]2CC[C@H](c3cc(Nc4ccc5c(c4F)CNS5(=O)=O)n[nH]3)C2)c1 (relative stereo) : 5.08
